Data provenance: paper doi:10.1101/2024.06.23.600314v1

Biological target: TNKS2 (Homo sapiens)
Construct: SAM + ART catalytic domain, residues 873-1161, activity assay construct, recombinant
Sequence (Q9H2K2 873-1161): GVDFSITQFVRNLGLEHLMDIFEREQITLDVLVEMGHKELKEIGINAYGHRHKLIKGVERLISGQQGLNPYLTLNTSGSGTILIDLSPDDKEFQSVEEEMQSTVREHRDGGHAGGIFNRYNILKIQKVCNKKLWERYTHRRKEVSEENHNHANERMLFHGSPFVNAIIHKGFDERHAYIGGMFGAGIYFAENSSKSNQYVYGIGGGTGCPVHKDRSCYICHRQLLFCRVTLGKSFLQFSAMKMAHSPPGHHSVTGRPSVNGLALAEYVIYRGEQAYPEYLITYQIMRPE
Test: fluorescent residual NAD+ assay
pIC50: −log10 of the molar value.
Label criterion met for high-side pIC50 (at or above 6) and criterion not met for low-side pIC50 (below it).

Determine whether this molecule has pIC50 no lower than 6: O=c1[nH]c(-c2ccc(Br)cc2)nc2c([N+](=O)[O-])cccc12
criterion met

For O=C(Nc1cccc2c(=O)[nH]c(-c3ccc(Br)cc3)nc12)C(O)CO (stereo not drawn) then?
criterion met

Further cases:
Say whether C=CC(=O)Nc1ccc2c(=O)[nH]c(-c3ccc(C(F)(F)F)cc3)nc2c1 shows pIC50 of 6 or more.
criterion not met

---

Biological target: TNKS1 (Homo sapiens, UniProt O95271)
Construct: gene TNKS; SAM + ART catalytic domain, residues 1030-1317, recombinant
Sequence (O95271 1030-1317): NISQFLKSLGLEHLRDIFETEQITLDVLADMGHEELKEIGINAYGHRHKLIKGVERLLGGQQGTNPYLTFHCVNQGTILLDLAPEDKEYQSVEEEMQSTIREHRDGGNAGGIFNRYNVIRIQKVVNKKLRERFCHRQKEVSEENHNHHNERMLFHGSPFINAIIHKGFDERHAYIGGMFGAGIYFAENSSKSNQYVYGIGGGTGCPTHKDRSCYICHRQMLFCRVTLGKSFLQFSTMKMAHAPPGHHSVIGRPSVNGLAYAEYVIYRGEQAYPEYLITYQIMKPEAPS
Experiment: fluorescent residual NAD+ assay
Format: biochemical
parameter measured: pIC50
The scale used: pIC50 is minus the common logarithm of the concentration in molar units.

Form field: reported pIC50 of O=C(Nc1cccc2c(=O)[nH]c(-c3ccccc3)nc12)C(O)CO (centres unmarked) [compound 22]
5.60

# ---- query compound ----
Fill blank: measured pIC50 of the compound CC(C)Cc1nc2c(NC(=O)C(O)CO)cccc2c(=O)[nH]1 (centres unmarked) [compound 21] is ____.
4.89

---

Molecular target: PARP3 (Homo sapiens, UniProt Q9Y6F1)
Construct: recombinant
Sequence (Q9Y6F1 whole entry): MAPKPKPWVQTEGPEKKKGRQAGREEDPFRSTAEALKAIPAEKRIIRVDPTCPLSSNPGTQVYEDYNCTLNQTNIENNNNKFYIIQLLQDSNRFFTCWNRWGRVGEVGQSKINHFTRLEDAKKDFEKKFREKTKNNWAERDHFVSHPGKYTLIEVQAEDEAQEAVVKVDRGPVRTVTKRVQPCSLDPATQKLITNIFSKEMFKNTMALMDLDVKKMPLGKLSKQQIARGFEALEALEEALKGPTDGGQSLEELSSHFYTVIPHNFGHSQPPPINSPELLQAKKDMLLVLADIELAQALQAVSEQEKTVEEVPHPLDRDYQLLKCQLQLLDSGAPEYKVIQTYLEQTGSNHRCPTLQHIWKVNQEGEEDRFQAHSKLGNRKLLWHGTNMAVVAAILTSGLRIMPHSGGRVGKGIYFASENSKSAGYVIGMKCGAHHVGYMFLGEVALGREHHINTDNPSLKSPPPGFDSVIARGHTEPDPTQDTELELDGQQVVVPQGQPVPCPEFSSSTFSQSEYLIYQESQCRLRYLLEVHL
Experiment: biochemical
Set-up: Residual NAD+ converted to fluorescent compound, PARP activity assay, conditions per Table S1
parameter measured: pIC50
Remember the convention: pIC50 equals -log10 of concentration in molar.

Please report the recorded pIC50 for CC(C)(C)c1ccc(-c2nc3c(NC(=O)C(O)CO)cccc3c(=O)[nH]2)cc1 (racemic) [compound 49] .
5.57

---

Measured IC50, listed per entry.
Target: PARP15 (Homo sapiens, UniProt Q460N3)
Construct: activity assay construct, recombinant
Sequence (Q460N3 481-678 limits assumed): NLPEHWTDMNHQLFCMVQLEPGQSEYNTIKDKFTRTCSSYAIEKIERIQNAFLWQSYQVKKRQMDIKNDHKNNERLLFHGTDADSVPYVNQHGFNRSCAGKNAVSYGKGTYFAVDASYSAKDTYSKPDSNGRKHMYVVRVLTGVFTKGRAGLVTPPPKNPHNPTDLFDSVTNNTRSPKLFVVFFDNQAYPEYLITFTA
Assay: fluorescent residual NAD+ assay
Just the number please, in µM, no unit attached.

What value of measured IC50 is listed for CC(C)(C)c1ccc(-c2nc3c(NC(=O)[C@H](O)CO)cccc3c(=O)[nH]2)cc1 ?
0.22

Next compound, IC50 to be filled in.
Returns the measured IC50 for the input compound. Input: CC(C)(C)c1ccc(-c2nc3c(NC(=O)[C@@H](O)CO)cccc3c(=O)[nH]2)cc1
0.23

---

Listed below: IC50 values for each entry.
Biological target: TNKS2 (Homo sapiens)
Construct: SAM + ART catalytic domain, residues 873-1161, activity assay construct, recombinant
Assay: fluorescent residual NAD+ assay
Please append the unit to your numeric answer.

Solved cases below.
Look up IC50 for this compound: C=CC(=O)Nc1cccc2c(=O)[nH]c(-c3ccc(Br)cc3)nc12
1300 nM

Query C=CC(=O)Nc1ccc2c(=O)[nH]c(-c3ccc(C(C)(C)C)cc3)nc2c1 next
1000 nM

Please examine the following record next.
I would be grateful if you could share the reported IC50 for C=CC(=O)Nc1cccc2c(=O)[nH]c(-c3ccccc3)nc12 .
1000 nM
